The following compounds have recorded MIC on Serratia marcescens.
Give the value, in units of µg/mL, as a plain number.

q: Answer briefly: MIC recorded on Serratia marcescens for Cn1nnnc1SCC1=C(C(=O)O)N2C(=O)C(NC(=O)C(NC(=O)c3nc4ccccc4[nH]3)c3ccccc3)C2SC1 (stereo not shown)
a: 21.5

q: Answer briefly: MIC recorded on Serratia marcescens for Cn1c(SCC2=C(C(=O)O)N3C(=O)C(NC(=O)C(NC(=O)c4nc5ccccc5[nH]4)c4ccc(O)cc4)C3SC2)nnc(O)c1=O (stereo not shown)
a: 41

q: Answer briefly: MIC recorded on Serratia marcescens for Cn1nnnc1SCC1=C(C(=O)O)N2C(=O)C(NC(=O)C(NC(=O)c3nc4ccccc4[nH]3)c3cccs3)C2SC1 (stereo not shown)
a: 14.8

q: Answer briefly: MIC recorded on Serratia marcescens for Cc1nnc(SCC2=C(C(=O)O)N3C(=O)C(NC(=O)C(NC(=O)c4nc5ccccc5[nH]4)c4ccc(O)cc4)C3SC2)s1 (stereo not shown)
a: 70

q: Answer briefly: MIC recorded on Serratia marcescens for CC(=O)OCC1=C(C(=O)O)N2C(=O)C(NC(=O)C(NC(=O)c3nc4ccccc4[nH]3)c3ccccc3)C2SC1 (stereo not shown)
a: 100

q: Answer briefly: MIC recorded on Serratia marcescens for Cn1nnnc1SCC1=C(C(=O)O)N2C(=O)C(NC(=O)C(NC(=O)c3nc4ccccc4[nH]3)c3ccc(O)cc3)C2SC1 (stereo not shown)
a: 20.7
